System: HEK293 cells
Experiment: Cell viability assay (MTT method)
Format: cell-based
Settings: compound 20 μM, percentage of viable LPS-stimulated cells
Experimental: HEK 293 cells (2.5-5.0×10^4 cells/well) were seeded in 96-well plate for overnight and treated with different compounds for 16-24 hours. Cell growth was determined by MTh-based colorimetric assays. […] Survival of cells after treatment with DETDs was calculated using the following formula: […] The ell viability assay was performed by the MTT method. […] The signals of individual samples in 96-well plates were detected at O.D.570 nm with Molecular Device SpectraMax Imaging Cytometer. […]
VALUE TYPE: Cell viability (%) Average
Please reply with the bare figure in % and do not write the unit itself.

The compound "O=[N+]([O-])c1ccc(N2CC[C@@]34CCCC[C@@H]3[C@@H]2Cc2ccc(O)cc24)cc1" , tested on HEK293 cells, showed Cell viability (%) Average of 82.1

So the reported Cell viability (%) Average for "Nc1cc(N2CC[C@@]34CCCC[C@@H]3[C@@H]2Cc2ccc(O)cc24)ccc1[N+](=O)[O-]" , on HEK293 cells, turned out to be 116.0

Recorded Cell viability (%) Average for "Nc1ccc(N2CC[C@@]34CCCC[C@@H]3[C@@H]2Cc2ccc(O)cc24)cc1" on HEK293 cells was 92.2

The reported HEK293 cells Cell viability (%) Average of "Nc1ccc(S(=O)(=O)N2CC[C@@]34CCCC[C@@H]3[C@@H]2Cc2ccc(O)cc24)cc1" is 75.5

All values here come from patent US20210130316A1.
